- Test system: Raw264.7 cells
- measurementSetup: mouse, 5 days, 20 μM
metricName: Primary QIM CellNb
Give bare numbers.

Known Primary QIM CellNb results, listed for orientation:
* CCc1ccc(/C=C(/C#N)C(=O)OC(C)C)s1 | 52.8
* COc1cc(Br)cc(/C=N/NC(=O)c2ccncc2)c1O | 90.5
* C=C(N/N=C/c1cccc(C)n1)c1nn(Cc2ccc(Br)cc2)cc1Br | 35.4

Provide each entry's Primary QIM CellNb from the list below.
1. COc1cc(/C=N/NC(=O)c2ccncc2)cc(Br)c1OC
2. Cc1cccn2c(=O)c(C=O)c(Nc3cccc(Cl)c3)nc12
3. CCCOC(=O)C1=C(C)NC2=C(C(=O)CC(c3ccccc3)C2)C1c1cccc(O)c1 (stereo not shown)
4. CCCC(=O)/N=C(\N)Nc1nc2ccccc2o1
5. Cc1ccc(NC(=O)c2c(NC(=O)C(F)(F)F)sc3c2CCC3)c(C)c1

## Result
1. 95.6
2. 104.0
3. 4.5
4. 26.2
5. 33.3

====

Field: QIM Confirm CellNb 0.2 uM. Provide a value for each of the compounds that follow.
- Tested on: Raw264.7 cells
- measurementSetup: mouse, 5 days, 0.2 uM
Numbers only.

Provide each entry's QIM Confirm CellNb 0.2 uM from the list below.
1. Cc1cc(C)cc(NC(=O)c2cccs2)c1 [IPK 000 192 45]
2. Cc1ccccc1NC(=O)c1c(NC(=O)c2ccccc2Cl)sc2c1CCC2 [IPK 000 073 71]
3. Cc1cccc(/C=N/NC(=O)c2ccncc2)c1 [IPK 000 043 26]
4. C=CCn1c(Cc2ccccc2)nc2c(cnn2-c2ccccc2)c1=O [IPK 000 073 11]
5. CSc1nsc(SCc2ccc(C(=O)Nc3ccc(C)cc3C)cc2)n1 [IPK 000 125 08]

## Result
[334.0, 45.3, 98.6, 67.2, 388.9]

====

- Tested on: M. tuberculosis H37Rv-GFP
- methodNotes: microbe, parasite or virus in culture
- Format: cell-based, Mycobacterium tuberculosis
- measurementSetup: Mycobacterium tuberculosis, H37RV, Macrophage, read-out: QIM Confirm % Inhibition 2 uM
metricName: inhibition at 2 µM (%)
Numbers only, in %.

- CCOC(=O)c1c(CSc2ccccc2)n(Cc2ccccc2)c2ccc(O)c(CN(C)C)c12 [IPK 000 016 05]: 0.8
- COc1cccc(OCCNC(=O)c2cc([N+](=O)[O-])cc([N+](=O)[O-])c2)c1 [IPK 000 027 77]: 47.7
- C/C(=N\NC(N)=S)c1ccc(Cl)cc1 [IPK 000 002 17]: 70.4

Provide each entry's inhibition at 2 µM from the list below.
1. COc1ccc(OCCNC(=O)c2cc([N+](=O)[O-])cc([N+](=O)[O-])c2)cc1 [IPK 000 028 35]
2. N#CC(C#N)=NNc1ccc(I)cc1 [IPK 000 007 31]

## Result
[102, 14.7]

Provide each entry's inhibition at 2 µM from the list below.
1. COc1ccccc1OCCNC(=O)c1cc([N+](=O)[O-])cc([N+](=O)[O-])c1 [IPK 000 027 74]
2. O=C(N/N=C/c1ccco1)c1ccncc1 [IPK 000 013 67]
3. O=C(NCCOCc1ccccc1)c1cc([N+](=O)[O-])cc([N+](=O)[O-])c1 [IPK 000 027 91]

## Result
1. 83.3
2. 102
3. 98.5
